Data provenance: patent US12297194B2

- target-or-system: Ba/F3 EGFR Del19/T790M/C797S mutants (Homo sapiens, UniProt P00533, T790M/C797S, cells depend on it, form not given)
- Sequence (P00533 with tags, fused parts or gaps DEL746-750/T790M/C797S, form open): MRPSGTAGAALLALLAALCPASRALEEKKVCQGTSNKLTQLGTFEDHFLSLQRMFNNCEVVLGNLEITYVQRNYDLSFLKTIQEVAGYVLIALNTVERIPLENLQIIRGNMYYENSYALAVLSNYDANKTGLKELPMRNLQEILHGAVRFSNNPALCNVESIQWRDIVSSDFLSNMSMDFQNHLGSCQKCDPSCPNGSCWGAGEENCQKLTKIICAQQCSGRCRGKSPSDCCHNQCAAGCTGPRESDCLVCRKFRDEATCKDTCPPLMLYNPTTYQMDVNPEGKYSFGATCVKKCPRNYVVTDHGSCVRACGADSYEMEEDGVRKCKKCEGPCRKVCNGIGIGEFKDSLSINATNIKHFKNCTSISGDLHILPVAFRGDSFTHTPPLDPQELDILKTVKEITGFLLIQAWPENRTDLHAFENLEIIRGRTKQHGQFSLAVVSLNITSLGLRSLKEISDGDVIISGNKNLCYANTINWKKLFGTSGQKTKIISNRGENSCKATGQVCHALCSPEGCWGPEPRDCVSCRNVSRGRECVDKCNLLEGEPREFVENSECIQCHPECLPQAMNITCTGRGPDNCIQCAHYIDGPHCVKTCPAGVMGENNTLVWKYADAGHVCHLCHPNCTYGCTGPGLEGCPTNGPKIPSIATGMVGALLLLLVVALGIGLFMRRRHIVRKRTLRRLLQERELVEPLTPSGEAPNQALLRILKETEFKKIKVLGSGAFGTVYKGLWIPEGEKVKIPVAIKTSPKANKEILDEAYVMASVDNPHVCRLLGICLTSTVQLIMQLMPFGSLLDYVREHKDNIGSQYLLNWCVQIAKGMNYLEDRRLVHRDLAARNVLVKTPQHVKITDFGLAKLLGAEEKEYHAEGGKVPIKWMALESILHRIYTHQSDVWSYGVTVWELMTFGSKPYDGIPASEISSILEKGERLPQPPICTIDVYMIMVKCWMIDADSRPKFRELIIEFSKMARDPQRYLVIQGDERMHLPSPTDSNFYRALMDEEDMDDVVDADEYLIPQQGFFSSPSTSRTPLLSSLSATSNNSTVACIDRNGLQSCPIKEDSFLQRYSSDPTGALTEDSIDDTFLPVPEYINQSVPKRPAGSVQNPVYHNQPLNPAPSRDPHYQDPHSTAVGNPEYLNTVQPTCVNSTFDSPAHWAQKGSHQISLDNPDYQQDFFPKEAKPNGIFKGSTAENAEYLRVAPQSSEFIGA
- test-protocol: CellTiter-Glo cell viability, Ba/F3 EGFR Del19/T790M/C797S cells
- Format: cell-based, murine
- measurement-context: 72 hours, read-out: Ba/F3 EGFR mutant cell (IC50, nM) D/T/C
The entries below come with measured GI50 values attached.
Express your answer in nM, writing the number without its unit.

Sample answers from the record:
Prompt: Please list GI50 recorded for the compound CCS(=O)(=O)Nc1c(Nc2nc(Nc3cc(C)c(N4CCC(N5CCN(C)CC5)CC4)cc3OC)ncc2Cl)cccc1OC [Example C16]
Response: 10

Prompt: Quote GI50 reported for CCCc1cc(Nc2ncc(Cl)c(Nc3ccc4nccnc4c3NS(C)(=O)=O)n2)c(OC)cc1N1CCC(N2CCN(C)CC2)CC1 [Example A6] please.
Response: 4

Prompt: Check the records and state GI50 for CCc1cc(Nc2ncc(Cl)c(Nc3ccc4nccnc4c3N(C)S(C)(=O)=O)n2)c(OC)cc1N1CC2CCC1CN2C(C)C (stereo not drawn) [Example B28]
Response: 5

Next:
Prompt: State, in one line, measured GI50 of CCCc1cc(Nc2ncc(Br)c(Nc3ccc4nccnc4c3N(C)S(C)(=O)=O)n2)c(OC)cc1N1CCC(N(C)C)CC1 [Example B24]
Response: 20

Prompt: Tell me its GI50 given CCCc1cc(Nc2ncc(Cl)c(Nc3ccc4nccnc4c3N(C)S(C)(=O)=O)n2)c(OC)cc1N1CCC(N2CCCC2)CC1 [Example A42] as the entry.
Response: 7

Prompt: State its GI50: COc1ccc(Nc2nc(Nc3cc(C)c(N4CCC(N5CCCC5)CC4)cc3OC)ncc2Cl)c(NS(C)(=O)=O)c1 [Example C11]
Response: 9

----------
- target-or-system: Ba/F3 EGFR L858R/T790M/C797S mutants (Homo sapiens, UniProt P00533, T790M/C797S/L858R, cells depend on it)
- Sequence (P00533 whole entry T790M/C797S/L858R): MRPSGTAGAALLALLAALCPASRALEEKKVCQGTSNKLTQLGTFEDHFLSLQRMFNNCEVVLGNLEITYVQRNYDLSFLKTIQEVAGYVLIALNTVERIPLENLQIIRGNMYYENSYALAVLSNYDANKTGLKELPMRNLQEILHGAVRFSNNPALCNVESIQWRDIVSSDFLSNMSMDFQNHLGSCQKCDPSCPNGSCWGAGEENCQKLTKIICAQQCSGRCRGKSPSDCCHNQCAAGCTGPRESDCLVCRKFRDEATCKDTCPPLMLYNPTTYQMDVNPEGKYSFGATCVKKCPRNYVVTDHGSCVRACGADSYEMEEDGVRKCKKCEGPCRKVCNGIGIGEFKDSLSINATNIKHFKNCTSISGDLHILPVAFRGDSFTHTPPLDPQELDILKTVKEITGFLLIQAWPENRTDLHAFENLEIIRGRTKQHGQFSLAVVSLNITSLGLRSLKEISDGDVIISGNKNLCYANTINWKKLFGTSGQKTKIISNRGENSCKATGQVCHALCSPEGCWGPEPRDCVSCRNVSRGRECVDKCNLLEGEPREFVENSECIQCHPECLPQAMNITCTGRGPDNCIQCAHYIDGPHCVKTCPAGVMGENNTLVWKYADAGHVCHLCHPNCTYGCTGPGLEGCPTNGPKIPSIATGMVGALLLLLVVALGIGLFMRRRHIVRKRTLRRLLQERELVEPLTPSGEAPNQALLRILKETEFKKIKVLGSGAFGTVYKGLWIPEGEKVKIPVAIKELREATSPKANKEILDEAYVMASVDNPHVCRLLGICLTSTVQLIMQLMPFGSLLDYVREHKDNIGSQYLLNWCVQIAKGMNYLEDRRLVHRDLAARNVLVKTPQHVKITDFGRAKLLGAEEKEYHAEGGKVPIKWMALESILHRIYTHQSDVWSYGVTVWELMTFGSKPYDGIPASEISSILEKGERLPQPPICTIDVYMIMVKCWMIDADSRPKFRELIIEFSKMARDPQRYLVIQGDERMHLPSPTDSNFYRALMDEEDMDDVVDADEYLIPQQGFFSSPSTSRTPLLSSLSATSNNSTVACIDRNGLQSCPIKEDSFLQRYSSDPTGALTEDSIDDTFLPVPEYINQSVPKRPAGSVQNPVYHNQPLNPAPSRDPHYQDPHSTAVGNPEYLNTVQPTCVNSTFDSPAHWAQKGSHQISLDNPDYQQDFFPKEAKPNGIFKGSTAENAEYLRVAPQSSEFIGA
- test-protocol: CellTiter-Glo cell viability, Ba/F3 EGFR L858R/T790M/C797S cells
- Type: cell-based, murine
- measurement-context: 72 hours, read-out: Ba/F3 EGFR mutant cell (IC50, nM) L/T/C
property-measured: GI50 (nM)
All answers are understood in nM, so give the number only.

Illustrative cases are given below, each with its answer.
Prompt: State its GI50: CCc1cc(Nc2ncc(Cl)c(Nc3ccc4nccnc4c3NS(C)(=O)=O)n2)c(OC)cc1N1CC2CCC1CN2C(C)C (stereo not shown)
Response: 83

Prompt: State its GI50: "COc1cc(N2CCC(N(C)C)CC2)c(C)cc1Nc1ncc(Br)c(Nc2cccc(OC)c2N(C)S(C)(=O)=O)n1"
Response: 94

Prompt: Report GI50 for "COc1cc(N2CCC(N3CCN(C)CC3)CC2)c(C)cc1Nc1ncc(Br)c(Nc2ccc3nccnc3c2NS(C)(=O)=O)n1"
Response: 6

--- query ---
Prompt: Query GI50 for "COc1cc(C2CCNCC2)ccc1Nc1ncc(C2CC2)c(Nc2ccc3nccnc3c2NS(C)(=O)=O)n1"
Response: 1850

----------
- target-or-system: Ba/F3 EGFR L858R/C797S mutants (Homo sapiens, UniProt P00533, C797S/L858R, cells depend on it)
- Sequence (P00533 whole entry C797S/L858R): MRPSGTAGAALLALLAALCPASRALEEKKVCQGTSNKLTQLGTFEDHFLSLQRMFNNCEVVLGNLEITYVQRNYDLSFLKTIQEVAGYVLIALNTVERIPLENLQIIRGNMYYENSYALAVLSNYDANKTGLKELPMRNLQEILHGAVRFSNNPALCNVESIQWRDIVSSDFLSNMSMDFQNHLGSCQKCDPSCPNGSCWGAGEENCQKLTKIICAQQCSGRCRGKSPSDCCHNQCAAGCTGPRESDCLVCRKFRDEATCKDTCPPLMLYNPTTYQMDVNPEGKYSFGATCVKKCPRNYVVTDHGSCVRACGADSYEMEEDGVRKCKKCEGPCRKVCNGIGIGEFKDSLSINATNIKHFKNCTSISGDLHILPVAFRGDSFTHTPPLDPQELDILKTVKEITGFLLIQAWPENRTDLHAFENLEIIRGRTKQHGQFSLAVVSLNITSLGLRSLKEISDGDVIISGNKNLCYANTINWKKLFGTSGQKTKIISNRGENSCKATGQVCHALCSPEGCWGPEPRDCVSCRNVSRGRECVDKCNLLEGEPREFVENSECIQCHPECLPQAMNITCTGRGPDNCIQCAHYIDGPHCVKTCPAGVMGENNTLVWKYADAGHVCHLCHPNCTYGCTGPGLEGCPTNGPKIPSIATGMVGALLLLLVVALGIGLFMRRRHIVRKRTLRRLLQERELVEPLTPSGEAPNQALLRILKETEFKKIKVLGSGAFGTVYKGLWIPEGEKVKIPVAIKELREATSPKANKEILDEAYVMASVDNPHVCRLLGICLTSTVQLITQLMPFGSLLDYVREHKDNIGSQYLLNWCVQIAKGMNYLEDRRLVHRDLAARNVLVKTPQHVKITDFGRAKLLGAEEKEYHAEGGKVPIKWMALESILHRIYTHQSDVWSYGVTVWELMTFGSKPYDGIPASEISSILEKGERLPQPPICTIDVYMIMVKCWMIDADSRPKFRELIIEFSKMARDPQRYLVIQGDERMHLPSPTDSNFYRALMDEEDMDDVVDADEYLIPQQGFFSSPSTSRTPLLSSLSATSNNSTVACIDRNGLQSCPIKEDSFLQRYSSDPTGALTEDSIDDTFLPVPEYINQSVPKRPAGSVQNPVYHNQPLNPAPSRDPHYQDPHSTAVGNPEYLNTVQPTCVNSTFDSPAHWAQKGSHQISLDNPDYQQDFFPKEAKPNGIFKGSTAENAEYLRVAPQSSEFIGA
- test-protocol: CellTiter-Glo cell viability, Ba/F3 EGFR L858R/C797S cells
- Type: cell-based, murine
- measurement-context: 72 hours, read-out: Ba/F3 EGFR mutant cell (IC50, nM) L/C
Please assign NOT MET whenever GI50 is at or above 60 nM, and MET whenever it is below.

Please review the entries below; each comes with its answer.
Prompt: Is GI50 strictly under 60 nM for the entry CCc1cc(Nc2ncc(Br)c(Nc3ccc4nccnc4c3N(C)S(C)(=O)=O)n2)c(OC)cc1N1CC2(CCN2C(C)C)C1 [Example B31] ?
Response: MET

Prompt: Regarding CC(C)Oc1cc(C2CCNCC2)ccc1Nc1ncc(Cl)c(Nc2ccc3nccnc3c2NS(C)(=O)=O)n1 [Example B22] , kindly confirm whether its GI50 is beneath 60 nM.
Response: NOT MET

Prompt: Problem: For the compound COc1cc(C2CCNCC2)ccc1Nc1ncc(F)c(Nc2ccc3nccnc3c2NS(C)(=O)=O)n1 [Example B17] , is GI50 under 60 nM?
Response: NOT MET

Prompt: For this compound, is GI50 lower than 60 nM? CCc1cc(Nc2ncc(Br)c(Nc3ccc4nccnc4c3NS(C)(=O)=O)n2)c(OC)cc1N1CCC(N2CC3CCC2CN3C)CC1 (stereo not drawn) [Example A46]
Response: NOT MET

Prompt: In plain terms, does CCc1cc(Nc2ncc(Br)c(Nc3ccc4nccnc4c3N(C)S(C)(=O)=O)n2)c(OC)cc1N1CCC(N2CCCCC2)CC1 [Example A44] come in under 60 nM for GI50?
Response: NOT MET

New cases:
Prompt: Determine whether this compound shows GI50 lower than 60 nM (ties excluded): CCc1cc(Nc2ncc(Cl)c(Nc3ccc4nccnc4c3NS(C)(=O)=O)n2)c(OC)cc1N1CCC(N(C)C)CC1 [Example B5]
Response: NOT MET

Prompt: hey, is GI50 for COc1cc(N2CCC(N(C)C)CC2)c(C)cc1Nc1ncc(Br)c(Nc2cccc(OC)c2NS(C)(=O)=O)n1 [Example C3] lower than 60 nM or not?
Response: NOT MET

Prompt: In the record for COc1cc(N2CCC(N3CCN(C)CC3)CC2)ccc1Nc1ncc(Cl)c(Nc2ccc3scnc3c2NS(C)(=O)=O)n1 [Example C8] , is GI50 less than 60 nM?
Response: NOT MET

Prompt: Could you please tell me whether GI50 recorded for CCc1cc(Nc2ncc(Br)c(Nc3cccc(OC)c3NS(C)(=O)=O)n2)c(OC)cc1N1CCC(N2CCN(C)CC2)CC1 [Example C22] is less than 60 nM?
Response: MET

Prompt: For this compound, is GI50 lower than 60 nM? COc1cc(N2CCNCC2)ccc1Nc1ncc(Cl)c(Nc2ccc3nccnc3c2NS(C)(=O)=O)n1 [Example B16]
Response: NOT MET

Prompt: Given the entry COc1ccc(Nc2nc(Nc3cc(C)c(N4CCC(N(C)C)CC4)cc3OC)ncc2Cl)c(NS(C)(=O)=O)c1 [Example C4] , would its reported GI50 be below 60 nM?
Response: NOT MET

Prompt: Is 60 nM strictly greater than the compound's reported GI50? compound: CCc1cc(Nc2ncc(Br)c(Nc3ccc4nccnc4c3N(C)S(C)(=O)=O)n2)c(OC(C)C)cc1C1CCN(C)CC1 [Example B32]
Response: NOT MET
